B1: VH:VL chains; a variant is named by its letters at X, in order (parent)
chain 1: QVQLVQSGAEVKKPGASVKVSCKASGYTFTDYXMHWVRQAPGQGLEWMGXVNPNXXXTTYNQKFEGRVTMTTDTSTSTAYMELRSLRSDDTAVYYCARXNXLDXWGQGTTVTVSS
chain 2: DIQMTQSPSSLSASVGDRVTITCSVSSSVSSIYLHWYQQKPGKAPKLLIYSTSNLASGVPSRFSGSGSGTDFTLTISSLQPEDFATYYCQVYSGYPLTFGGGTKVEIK

Variants of: B1
Test: yeast display scFab, FACS + sequencing
Conditions: with MET
Some of the results follow. No count for the full screen is at hand.
recordedEndpoint: antigen binding call

Study these solved cases before continuing.
>>> result("YRGGGVVD")
"binds"
>>> result("YREGDFVD")
"no binding"
>>> result("DRAGDAAV")
"no binding"
>>> result("SKKTGSVD")
"no binding"
>>> result("SAGTGSWD")
"no binding"

Give antigen binding call for each of the items listed below.
1. YRGRGFVD
2. YRARGAWD
3. YRAGGYWY
4. YRAGGDWY
5. SKGKGSWD
6. YRGRTAAY

Result:
1. binds
2. binds
3. binds
4. binds
5. binds
6. binds

Give antigen binding call for each of the items listed below.
1. FRGKGASD
2. VAEKGDGV
3. ARRGGSVD

Result:
1: binds; 2: no binding; 3: no binding
